- Assayed System: EGFR (UniProt P00533)
- Sequence (P00533 whole entry, looked up): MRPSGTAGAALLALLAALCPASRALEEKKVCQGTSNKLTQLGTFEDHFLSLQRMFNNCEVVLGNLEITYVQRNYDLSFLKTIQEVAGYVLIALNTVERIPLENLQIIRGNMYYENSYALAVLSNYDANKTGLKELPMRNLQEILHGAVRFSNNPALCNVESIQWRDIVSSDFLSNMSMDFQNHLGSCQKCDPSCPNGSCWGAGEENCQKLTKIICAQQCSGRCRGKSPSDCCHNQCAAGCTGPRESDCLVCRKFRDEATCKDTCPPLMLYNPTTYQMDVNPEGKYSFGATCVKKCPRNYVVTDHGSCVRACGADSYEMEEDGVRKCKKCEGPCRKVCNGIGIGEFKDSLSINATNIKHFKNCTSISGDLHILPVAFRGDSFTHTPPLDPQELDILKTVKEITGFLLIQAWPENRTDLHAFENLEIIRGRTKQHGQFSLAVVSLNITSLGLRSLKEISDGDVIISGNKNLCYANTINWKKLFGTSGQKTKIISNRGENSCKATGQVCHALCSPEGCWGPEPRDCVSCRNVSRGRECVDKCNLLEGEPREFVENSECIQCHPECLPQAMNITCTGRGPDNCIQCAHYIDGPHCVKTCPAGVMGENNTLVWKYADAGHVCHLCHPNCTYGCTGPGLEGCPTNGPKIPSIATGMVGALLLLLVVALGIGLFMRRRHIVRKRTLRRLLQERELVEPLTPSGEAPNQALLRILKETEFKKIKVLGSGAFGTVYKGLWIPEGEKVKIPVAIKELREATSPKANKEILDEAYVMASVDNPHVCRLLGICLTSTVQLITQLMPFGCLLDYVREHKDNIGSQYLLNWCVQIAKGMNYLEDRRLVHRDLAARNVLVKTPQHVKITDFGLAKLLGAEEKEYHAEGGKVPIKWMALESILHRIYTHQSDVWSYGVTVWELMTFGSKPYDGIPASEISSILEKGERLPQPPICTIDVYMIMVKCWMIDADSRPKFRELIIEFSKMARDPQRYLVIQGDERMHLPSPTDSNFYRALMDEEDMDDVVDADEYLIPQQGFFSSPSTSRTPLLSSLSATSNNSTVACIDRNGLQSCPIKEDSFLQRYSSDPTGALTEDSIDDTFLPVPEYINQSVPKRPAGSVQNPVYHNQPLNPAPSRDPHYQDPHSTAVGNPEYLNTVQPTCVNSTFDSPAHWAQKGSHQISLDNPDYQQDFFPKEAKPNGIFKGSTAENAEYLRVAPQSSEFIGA
Assay Readout: IC50
Answers without a unit are incomplete; give the number and then its unit.

Lookup: Item O=C(/C=C/CBr)Nc1ccc2ncnc(Nc3cccc(Br)c3)c2c1 with EGFR (UniProt P00533) - IC50?
Found: 0.01 nM
